biological target: Protein kinase C beta type (Homo sapiens); conditions: at 0.1 µM;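 further: measured against the PKC-beta2 splice variant, with values reported as mean percent inhibition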
Description: GSK_PKIS: PKC-beta2 (splice variant) mean inhibition at 0.1 uM [Nanosyn]
MEASUREMENT_LABEL: inhibition (%)
Field: numeric (%). Do not append units.

NS(=O)(=O)c1ccc(NC=C2C(=O)Nc3ccc4ncsc4c32)cc1 | 2.28
c1ccc(Nc2ncc(-c3ccccc3)o2)cc1 | 1.46
c1ccc(Cc2nc3ccc(Nc4ncnc5ccccc45)cc3[nH]2)cc1 | 0.1
FC(F)(F)c1ccc(-c2nn3ncccc3c2-c2ccnc(Nc3ccc4c(c3)OCCO4)n2)cc1 | 5.29
CN1CCN(C(=O)c2ccc(NC(=O)Nc3ccc(N(C)c4ccnc(Nc5ccc(CS(C)(=O)=O)cc5)n4)cc3)cc2)CC1 | 1.51

Query (compound): CN(C)C(=O)O[C@H]1CN[C@H](C#Cc2cc3ncnc(Nc4ccc(OCc5cccc(F)c5)c(Cl)c4)c3s2)C1 ; field requested: inhibition
1.29

Again, but for CC(C)c1ccc(Nc2nccc(-c3cnn4ncccc34)n2)cc1
0.59

Same thing, different compound: O=S(=O)(CCOCc1ccc(-c2ccc3ncnc(Nc4ccc(OCc5cccc(F)c5)c(Cl)c4)c3c2)o1)c1ccccc1
0.96

Also CCOc1nccc2c1nc(-c1nonc1N)n2CC , if possible.
3.06

###

target: Serine/threonine-protein kinase SIK1 (Homo sapiens); settings: at 1 µM;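 further: mean inhibition value from the GSK PKIS profiling set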
MEASUREMENT_LABEL: inhibition (%)
Answer with a number only, understood to be in %.

CCCN1CCCC(c2ccc(Nc3nc(Nc4cc(F)ccc4C(N)=O)c4cc[nH]c4n3)c(OC)c2)C1 (centres undefined) | 10.2
Cc1ccc(NC(=O)CC2CC2)cc1-c1ccc(C(=O)NCC2CC2)cc1 | 9.75
COc1cc(/C=N/Nc2ncnc3c2cnn3C(C)C)ccc1O | 14.5
NS(=O)(=O)c1ccc(N/N=C2\C(=O)Nc3ccc(Cl)cc32)cc1 | 10.9
O=S(=O)(CCOCc1ccc(-c2ccc3ncnc(Nc4ccc(OCc5cccc(F)c5)c(Cl)c4)c3c2)o1)c1ccccc1 | 5.54

Then this compound:
Requested read-out: inhibition. Entry: COc1cc2ncnc(Nc3ccc(C)c(O)c3)c2cc1OC
33.2

###

biological target: ALK tyrosine kinase receptor (Homo sapiens) (UniProt Q9UM73); details: at 0.1 µM
Sequence (Q9UM73 19-1620 limits assumed): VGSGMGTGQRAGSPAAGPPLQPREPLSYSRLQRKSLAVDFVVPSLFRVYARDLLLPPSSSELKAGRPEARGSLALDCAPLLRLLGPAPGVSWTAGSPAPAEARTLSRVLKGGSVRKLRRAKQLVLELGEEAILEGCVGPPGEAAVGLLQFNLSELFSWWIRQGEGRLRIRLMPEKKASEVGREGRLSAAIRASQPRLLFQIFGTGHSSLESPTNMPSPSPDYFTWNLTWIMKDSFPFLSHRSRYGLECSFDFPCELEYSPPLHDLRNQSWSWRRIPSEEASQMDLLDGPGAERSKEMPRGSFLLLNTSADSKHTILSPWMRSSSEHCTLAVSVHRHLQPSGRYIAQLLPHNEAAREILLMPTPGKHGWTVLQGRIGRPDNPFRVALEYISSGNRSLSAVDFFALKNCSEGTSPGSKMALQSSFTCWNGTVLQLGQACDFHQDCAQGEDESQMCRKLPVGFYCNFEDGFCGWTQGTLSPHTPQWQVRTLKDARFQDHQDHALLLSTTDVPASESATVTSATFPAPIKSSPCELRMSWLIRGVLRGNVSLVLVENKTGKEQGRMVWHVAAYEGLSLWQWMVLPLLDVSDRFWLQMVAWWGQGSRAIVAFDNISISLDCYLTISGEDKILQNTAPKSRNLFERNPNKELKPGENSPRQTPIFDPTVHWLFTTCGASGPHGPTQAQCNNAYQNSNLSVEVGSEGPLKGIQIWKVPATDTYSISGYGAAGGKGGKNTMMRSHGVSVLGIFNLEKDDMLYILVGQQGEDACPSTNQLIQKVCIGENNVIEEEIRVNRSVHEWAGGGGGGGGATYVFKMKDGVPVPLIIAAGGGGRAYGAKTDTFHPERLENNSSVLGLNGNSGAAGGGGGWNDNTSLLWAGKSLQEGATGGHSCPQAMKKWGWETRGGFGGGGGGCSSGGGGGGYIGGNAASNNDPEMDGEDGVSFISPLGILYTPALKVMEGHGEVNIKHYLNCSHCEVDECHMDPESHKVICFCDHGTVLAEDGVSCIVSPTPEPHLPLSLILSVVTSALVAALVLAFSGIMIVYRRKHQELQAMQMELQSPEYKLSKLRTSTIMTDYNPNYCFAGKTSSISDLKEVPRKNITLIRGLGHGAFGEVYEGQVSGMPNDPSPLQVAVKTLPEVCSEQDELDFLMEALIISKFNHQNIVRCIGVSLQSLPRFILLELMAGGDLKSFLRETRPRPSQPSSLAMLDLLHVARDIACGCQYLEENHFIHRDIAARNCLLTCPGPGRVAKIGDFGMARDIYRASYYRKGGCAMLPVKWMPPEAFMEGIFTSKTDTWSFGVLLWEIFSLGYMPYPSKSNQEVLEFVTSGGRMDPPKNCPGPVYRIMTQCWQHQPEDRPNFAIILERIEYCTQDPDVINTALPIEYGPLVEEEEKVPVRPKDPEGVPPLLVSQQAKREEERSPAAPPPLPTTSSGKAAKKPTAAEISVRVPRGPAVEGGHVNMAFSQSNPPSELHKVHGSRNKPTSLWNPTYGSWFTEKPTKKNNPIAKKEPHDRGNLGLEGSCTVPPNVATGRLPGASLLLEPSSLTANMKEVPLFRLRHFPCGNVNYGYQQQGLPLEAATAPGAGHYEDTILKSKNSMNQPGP
Description: GSK_PKIS: ALK mean inhibition at 0.1 uM [Nanosyn]
MEASUREMENT_LABEL: inhibition (%)
Report only the number, with the unit % understood.

For orientation, consider the following solved cases.
C[C@@H](Oc1cc(-n2cnc3ccc(OC[C@@H](O)CO)cc32)sc1C(N)=O)c1ccccc1Cl | -0.7
Nc1nccc(-c2c(-c3ccc(F)cc3)nn3cc(C(F)(F)F)ccc23)n1 | 3.84

Okay, next one:
I am curious: what inhibition value has been reported for Cc1ccc(Nc2ccnc(Nc3cccc(C(N)=O)c3)n2)cc1O ?
-0.94

###

Entries and their inhibition values follow.
system: Proto-oncogene tyrosine-protein kinase receptor Ret (Homo sapiens), P07949 [Y791F]; settings: at 0.1 µM
Sequence (P07949 whole entry Y791F): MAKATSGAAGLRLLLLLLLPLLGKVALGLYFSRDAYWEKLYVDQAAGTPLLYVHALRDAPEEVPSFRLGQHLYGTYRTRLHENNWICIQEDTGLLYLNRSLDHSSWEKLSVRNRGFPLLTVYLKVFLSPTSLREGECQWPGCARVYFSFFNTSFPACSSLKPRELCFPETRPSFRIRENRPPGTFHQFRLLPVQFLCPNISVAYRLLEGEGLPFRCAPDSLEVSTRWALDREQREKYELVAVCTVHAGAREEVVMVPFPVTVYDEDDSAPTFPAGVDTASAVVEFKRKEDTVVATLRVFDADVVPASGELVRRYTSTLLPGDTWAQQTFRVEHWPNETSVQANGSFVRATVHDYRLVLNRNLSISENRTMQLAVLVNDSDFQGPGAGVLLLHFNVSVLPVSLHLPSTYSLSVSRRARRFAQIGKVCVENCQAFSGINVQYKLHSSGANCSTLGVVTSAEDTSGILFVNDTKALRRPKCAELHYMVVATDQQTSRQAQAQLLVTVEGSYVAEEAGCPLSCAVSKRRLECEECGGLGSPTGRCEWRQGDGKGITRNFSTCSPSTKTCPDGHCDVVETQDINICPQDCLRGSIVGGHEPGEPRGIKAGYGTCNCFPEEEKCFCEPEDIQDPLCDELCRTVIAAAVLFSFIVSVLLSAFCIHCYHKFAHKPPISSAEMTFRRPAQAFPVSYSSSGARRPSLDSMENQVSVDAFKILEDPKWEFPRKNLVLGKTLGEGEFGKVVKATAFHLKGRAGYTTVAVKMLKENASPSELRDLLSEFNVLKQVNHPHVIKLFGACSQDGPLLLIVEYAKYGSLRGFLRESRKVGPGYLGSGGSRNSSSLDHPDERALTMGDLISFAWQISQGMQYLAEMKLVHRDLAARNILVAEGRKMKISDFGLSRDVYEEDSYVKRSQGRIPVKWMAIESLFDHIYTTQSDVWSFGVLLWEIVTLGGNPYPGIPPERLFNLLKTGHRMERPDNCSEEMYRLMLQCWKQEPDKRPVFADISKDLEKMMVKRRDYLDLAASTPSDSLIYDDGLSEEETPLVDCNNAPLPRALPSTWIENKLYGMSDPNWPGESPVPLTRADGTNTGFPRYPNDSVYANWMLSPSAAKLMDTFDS
Number only, in %; omit the unit.

Look over these answered cases.
c1ccc(Cc2nc3ccc(Nc4ncnc5ccccc45)cc3[nH]2)cc1 | 3.35
CCn1c(-c2nonc2N)nc2ccc(F)cc21 | 6.33
NS(=O)(=O)c1ccc(Nc2cc(-c3cccc(O)c3)n[nH]2)cc1 | 13.4

Given the entry NS(=O)(=O)c1cccc(Nc2cc(-c3ccc(F)cc3)n[nH]2)c1 , report its measured inhibition.
3.26

Could you do the same for Cc1ccc(NC(=O)CC2CC2)cc1-c1ccc(C(=O)NCC2CC2)cc1 , please?
7.7

One more compound: Cc1ccc2c(-c3ccnc(Nc4ccc5c(c4)OCCO5)n3)c(-c3ccc(C(F)(F)F)cc3)nn2n1
1.62

Follow-up item: COC(=O)c1cncc(/C=C/c2c(C)cc(O)cc2C)c1
0.65

Cool, now CCS(=O)(=O)c1ccc(OC)c(Nc2ncc(-c3cccc(OC)c3)o2)c1
22.6

###

This listing pairs compounds with measured inhibition.
molecular target: Tyrosine-protein kinase HCK (Homo sapiens); details: at 1 µM;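 further: values are averaged percent inhibition of HCK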
Give the number; % is assumed, so skip it.

CN(C)CCCn1c(-c2nonc2N)nc2cnccc21 | 6.49
CN(C)C(=O)O[C@H]1CN[C@H](C#Cc2cc3ncnc(Nc4ccc(OCc5cccc(F)c5)c(Cl)c4)c3s2)C1 | 10.5
COc1cccc(-n2nc(C)c3c(N/N=C(\C)c4ccncc4)ncnc32)c1 | 3.38
c1ccc(Nc2ncc(-c3ccccc3)o2)cc1 | 13.3
COc1cc2ncnc(Nc3ccc4c(cnn4Cc4ccccc4)c3)c2cc1OC | 48.5

Proceeding to the next compound to report its inhibition.
# get_value(readout='inhibition', item= COc1cc(/C=N/Nc2ncnc3c2cnn3C(C)C)ccc1O )
32.6

###

biological target: Cyclin-dependent kinase 2 (Homo sapiens); settings: at 1 µM;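 further: mean inhibition measured against the CDK2/cyclin E complex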
MEASUREMENT_LABEL: inhibition (%)
# value in %; strip the unit string

# count of solved cases: 3
CS(=O)(=O)CCNCc1nc(-c2ccc3ncnc(Nc4ccc(OCc5cccc(C(F)(F)F)c5)cc4)c3c2)cs1 | 0.41
COC(=O)Nc1nc2cc(Oc3ccc(NC(=O)Nc4cccc(Br)c4)cc3)ccc2[nH]1 | 2.15
NC(=O)c1cccc(Nc2nccc(Nc3cccc(F)c3)n2)c1 | 5.16

Hello, I am looking for reported inhibition with Cyclin-dependent kinase 2 (Homo sapiens) for O=C1Nc2ccccc2/C1=C/Nc1ccc2[nH]c(=O)[nH]c2c1 . Could you help?
12.8

And then CN1CCN(C(=O)c2ccc(NC(=O)Nc3ccc(N(C)c4ccnc(Nc5ccc(CS(C)(=O)=O)cc5)n4)cc3)cc2)CC1 , what is it?
5.93

###

system: Tyrosine-protein kinase ABL1 (Homo sapiens), P00519 [Q252H]; conditions: at 0.1 µM
# inhibition per record follows
Entry rule: numbers only, all in %.

See these solved cases before continuing.
COc1ccc(-c2nn3ncccc3c2-c2ccnc(Nc3cccc(C(F)(F)F)c3)n2)cc1 | 2.67
OCc1ccc(-c2nc(-c3ccccn3)c(-c3ccc4c(c3)OCO4)[nH]2)cc1 | 3.06
Cc1ccc(C(=O)NC2CC2)cc1-c1ccc2[nH]ncc2c1 | -1.32
Cc1ccc(NC(=O)CC2CC2)cc1-c1ccc(C(=O)NCC2CC2)cc1 | 6.39
c1ccc(Nc2ncc(-c3ccccc3)o2)cc1 | 5.59
Cc1ccc2c(-c3ccnc(Nc4cccc(C(F)(F)F)c4)n3)c(-c3ccccc3)nn2n1 | 24.2
CCCN1CCCC(c2ccc(Nc3nc(Nc4cc(F)ccc4C(N)=O)c4cc[nH]c4n3)c(OC)c2)C1 (stereo not given) | 4.96
COc1cccc(-n2ncc3c(N/N=C/c4ccc(C)cc4)ncnc32)c1 | 37.6

Entry COc1cccc(-n2nc(C)c3c(N/N=C(\C)c4ccncc4)ncnc32)c1 , system Tyrosine-protein kinase ABL1 (Homo sapiens), P00519 [Q252H]: what inhibition was measured?
0.65

Next record, please: Nc1nccc(C#Cc2cncnc2Nc2ccc(OCc3cccc(F)c3)c(Cl)c2)n1
2.18

Now the same for COC(=O)Nc1nc2cc(Oc3ccc(NC(=O)Nc4cccc(Br)c4)cc3)ccc2[nH]1
39.7

Now consider COc1cccc(-n2ncc3c(N/N=C/c4ccc(S(C)(=O)=O)cc4)ncnc32)c1 and answer again.
87.2

Subsequent entry: CN(c1ccc(NC(=O)Nc2ccc(OC(F)(F)F)cc2)cc1)c1ccnc(Nc2cccc(S(N)(=O)=O)c2)n1
65.8

###

target: Aurora kinase A (Homo sapiens); settings: at 0.1 µM;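 further: each reported value is a mean percent inhibition of Aurora-A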
MEASUREMENT_LABEL: inhibition (%)
# output: bare number, implied unit %

C[C@@H](Oc1cc(-n2cnc3ccc(OC[C@@H](O)CO)cc32)sc1C(N)=O)c1ccccc1Cl | -0.94
N#Cc1cccc(Nc2nccc(-c3cnn4ncccc34)n2)c1 | 11.3
CN(C)C(=O)O[C@@H]1CN[C@@H](C#Cc2cc3ncnc(Nc4ccc(OCc5cccc(F)c5)c(Cl)c4)c3s2)C1 | 1.79

Any idea what inhibition was measured for CN(C)CCCn1c(-c2nonc2N)nc2cnccc21 ?
3.15

Try COc1cccc(-n2ncc3c(N/N=C/c4ccc(C)cc4)ncnc32)c1 next.
3.98

Likewise for Cc1ccc(O)cc1Nc1ccnc2ccc(S(C)(=O)=O)cc12 ?
1.96

Follow-up item: CCOc1nccc2c1nc(-c1nonc1N)n2CC
0.6

How about this compound: COc1ccc2ncnc(Nc3ccc(OCc4ccccc4)cc3)c2c1
1.97

Then this compound: Nc1nccc(C#Cc2cncnc2Nc2ccc(OCc3cccc(F)c3)c(Cl)c2)n1
1.06

Can you check Nc1nccc(-c2c(-c3ccc(F)cc3)ncn2CCCN2CCOCC2)n1 next?
3.86

###

test system: Tyrosine-protein kinase ABL1 (Homo sapiens), P00519 [E255K]; details: at 0.1 µM
MEASUREMENT_LABEL: inhibition (%)
Field format: number, assumed %, no unit text.

Example results:
CCS(=O)(=O)c1ccc(OC)c(Nc2nccc(N(C)c3ccc4c(C)n[nH]c4c3)n2)c1 | 50.5
c1ccc(Cc2nc3ccc(Nc4ncnc5ccccc45)cc3[nH]2)cc1 | 2.13

Could you tell me which inhibition is on file for COC(=O)c1cncc(/C=C/c2c(C)cc(O)cc2C)c1 ?
6.85

Can you handle COc1cc2ncnc(Nc3ccc4c(cnn4Cc4ccccc4)c3)c2cc1OC next?
2.21

Now consider COc1cccc(-n2ncc3c(N/N=C/c4ccc(C)cc4)ncnc32)c1 and answer again.
18.9

Entry to check: c1ccc(Nc2ncc(-c3ccccc3)o2)cc1
2.44

Now give it for COc1cc2ncn(-c3cc(OCc4ccccc4S(C)(=O)=O)c(C#N)s3)c2cc1OC too.
9.96
